experiment: Cytotoxicity in human NCI-H460 cells infected with HCoV-OC43 treated for 72 hrs by CPE inhibition assay
Assay type: toxicity, cell-based
condition.parameters: read-out: TC50
measurement.name: CC50 at 72 h (µM)
# output: bare number, implied unit µM

// COc1ccc(Nc2ncnc3ccc(Cl)cc23)cc1 : CC50 at 72 h value = 12.8

According to the records, this compound COc1cc(/C=C/c2ccccc2)c(C(=O)O)c(O)c1CC=C(C)C displays CC50 at 72 h of 38.5

CC50 at 72 h measured on FC(F)(F)c1cc(Nc2ncnc3cnc(Cl)cc23)cc(C(F)(F)F)c1 = 1.71

Just so you know, measured CC50 at 72 h for COc1cc(/C=C/c2ccc(F)cc2)c(C(=O)O)c(O)c1CC=C(C)C came out at 38.5

Looking up FC(F)(F)c1cc(Nc2ncnc3ccc(Cl)cc23)cc(C(F)(F)F)c1 , I see its CC50 at 72 h listed as 1.71

In plain terms, COc1ccc2ncnc(Oc3cc(C(F)(F)F)cc(C(F)(F)F)c3)c2c1 has a documented CC50 at 72 h of 240

Lab book: CC50 at 72 h of O=[N+]([O-])c1cccc(Nc2ncnc3ccc(Cl)cc23)c1 noted as 51.7

The compound listed as COC(=O)c1cc(F)cc(Nc2ncnc3ccc(OC)cc23)c1 has a reported CC50 at 72 h of 388

In plain terms, O=[N+]([O-])c1cnc(Nc2ncnc3ccc(Cl)cc23)nc1 has a documented CC50 at 72 h of 139

Reported CC50 at 72 h ( FC(F)(F)c1cc(Nc2ncnc3ccc(Br)cc23)cc(C(F)(F)F)c1 ) = 2.47

# CC50 at 72 h (compound: CCOc1ccc2nc(NCCN3CCN(C)CC3)nc(Nc3cc(C(F)(F)F)cc(C(F)(F)F)c3)c2c1 ) is 5.77

* * *

experiment: Cytotoxicity in human NCI-H460 cells infected with HCoV-OC43 treated for 72 hrs by CPE inhibition assay
Assay type: toxicity, cell-based
condition.parameters: read-out: TC50
measurement.name: CC50 at 72 h (µM)
Respond numerically; units are µM and should not be typed.

Record CCOc1ccc2nc(N3CCC(F)(F)CC3)nc(Nc3cc(C(F)(F)F)cc(C(F)(F)F)c3)c2c1 . Reported CC50 at 72 h: 12.8

Reported CC50 at 72 h for Cc1ccc2ncnc(Nc3cc(C(F)(F)F)cc(C(F)(F)F)c3)c2c1 was 96.2

Looking up COc1ccc2ncnc(Nc3cc(C(F)(F)F)cc(C(F)(F)F)c3)c2c1 , I see its CC50 at 72 h listed as 96.2

Note to self: CC50 at 72 h recorded for COc1ccc2ncnc(Nc3cccc(C#N)c3)c2c1 was 388

Lab book: CC50 at 72 h of CCOc1ccc2nc(NCCN3CCOCC3)nc(Nc3cc(C(F)(F)F)cc(C(F)(F)F)c3)c2c1 noted as 5.77

* * *

Assignment: determine reported log10 EC50 for the given compounds.
Test system: Human coronavirus OC43
experiment: Antiviral activity against HCoV-OC43 infected in human NCI-H460 cells treated for 72 hrs by CPE inhibition assay
Format: functional, organism-based
condition.parameters: Betacoronavirus 1, NCI-H460, 72 h
Hi team, quick reminder: these entries are log10 of EC50 (nM).

Entry CCOc1ccc2nc(N3CCC(F)(F)CC3)nc(Nc3cc(C(F)(F)F)cc(C(F)(F)F)c3)c2c1 : log10 EC50 on Human coronavirus OC43 = 3.79

Response field log10 EC50 (Human coronavirus OC43) for item FC(F)(F)c1cc(CNc2ncnc3ccc(Cl)cc23)cc(C(F)(F)F)c1 : 4.00

The reported Human coronavirus OC43 log10 EC50 of COC(=O)c1cc(Nc2ncnc3ccc(OC)cc23)cc(C(F)(F)F)c1 is 2.68

Let me check: O=[N+]([O-])c1cccc(Nc2ncnc3ccc(Cl)cc23)c1 , system Human coronavirus OC43, measured log10 EC50 is 3.63

log10 EC50 value, target or system Human coronavirus OC43, for COc1ccc2ncnc(NNC(=O)c3cc(C(F)(F)F)cc(C(F)(F)F)c3)c2c1 : 3.23

Let me check: CCOc1ccc2nc(NCc3cccs3)nc(Nc3cc(C(F)(F)F)cc(C(F)(F)F)c3)c2c1 , system Human coronavirus OC43, measured log10 EC50 is 3.47

The reported log10 EC50 value, Human coronavirus OC43, for CCOc1ccc2nc(NC(C)C)nc(Nc3cc(C(F)(F)F)cc(C(F)(F)F)c3)c2c1 reads 3.16

Human coronavirus OC43 assay, compound CCOc1ccc2nc(N3CCN(C)CC3)nc(Nc3cc(C(F)(F)F)cc(C(F)(F)F)c3)c2c1 , recorded log10 EC50 = 2.68

Measured on Human coronavirus OC43, CC(C)Oc1ccc2ncnc(Nc3cc(C(F)(F)F)cc(C(F)(F)F)c3)c2c1 has a documented log10 EC50 of 4.63

Summary: COc1ccc2ncnc(Nc3cc(F)cc(C#N)c3)c2c1 , Human coronavirus OC43, log10 EC50 = 4.38

Given the compound FC(F)(F)c1cc(Nc2ncnc3ccc(Br)cc23)cc(C(F)(F)F)c1 and test system Human coronavirus OC43, the measured log10 EC50 is 2.54

Noted log10 EC50 for COC(=O)c1cc(Cl)cc(Nc2ncnc3ccc(OC)cc23)c1 , tested on Human coronavirus OC43: 3.16

Case CCOc1ccc2nc(NCC(F)(F)F)nc(Nc3cc(C(F)(F)F)cc(C(F)(F)F)c3)c2c1 , Human coronavirus OC43, log10 EC50 recorded as 3.31

Bench note, Human coronavirus OC43: entry FC(F)(F)c1cc(Nc2ncnc3ccc(Cl)cc23)cc(C(F)(F)F)c1 , its log10 EC50 = 2.20

Field log10 EC50 (Human coronavirus OC43), entry CCOc1ccc2nc(NCc3ccco3)nc(Nc3cc(C(F)(F)F)cc(C(F)(F)F)c3)c2c1 : 3.08

* * *

Test system: Human coronavirus OC43
experiment: Antiviral activity against HCoV-OC43 infected in human NCI-H460 cells treated for 72 hrs by CPE inhibition assay
Format: functional, organism-based
condition.parameters: Betacoronavirus 1, NCI-H460, 72 h
pEC50: −log10 of the molar value.
Class yes (1): pEC50 at least 5. Class no (0): pEC50 below 5.

## Task Check this compound for pEC50 at or above 5: COc1ccc2ncnc(Nc3cccc(C#N)c3)c2c1
## Result no (0)

## Task Is it the case that CCCCNc1nc(Nc2cc(C(F)(F)F)cc(C(F)(F)F)c2)c2cc(OCC)ccc2n1 has pEC50 reaching or exceeding 5?
## Result yes (1)

## Task Can COc1cc(/C=C/c2ccccc2)c(C(=O)O)c(O)c1CC=C(C)C be said to have pEC50 at or above 5?
## Result no (0)

## Task Is reported pEC50 greater than or equal to 5 here: FC(F)(F)c1cc(Nc2ncnc3ccccc23)cc(C(F)(F)F)c1
## Result yes (1)

## Task I'd appreciate it if you could say whether CCCOc1ccc2ncnc(Nc3cc(C(F)(F)F)cc(C(F)(F)F)c3)c2c1 has pEC50 at least equal to 5.
## Result yes (1)

## Task Does the reported pEC50 for O=[N+]([O-])c1ccc(CNc2ncnc3ccc(Cl)cc23)cc1 fall at or above the 5 mark?
## Result no (0)

* * *

experiment: Cytotoxicity in human NCI-H460 cells infected with HCoV-OC43 treated for 72 hrs by CPE inhibition assay
Type: toxicity, cell-based
condition.parameters: read-out: TC50
measurement.name: CC50 at 72 h (µM)
Your answer should be a plain number; it is taken to be in µM.

Consider CCCCNc1nc(Nc2cc(C(F)(F)F)cc(C(F)(F)F)c2)c2cc(OCC)ccc2n1 . Its measured CC50 at 72 h is 10.7

# CC50 at 72 h (compound: COc1ccc2ncnc(NNC(=O)c3cc(C(F)(F)F)cc(C(F)(F)F)c3)c2c1 ) is 289

// Clc1ccc2ncnc(Nc3ccc(Br)cc3)c2c1 : CC50 at 72 h value = 5.14

Looking up CCOc1ccc2ncnc(Nc3cc(C(F)(F)F)cc(C(F)(F)F)c3)c2c1 , I found its CC50 at 72 h recorded as 219

Lab note: FC(F)(F)c1cc(CNc2ncnc3ccc(Cl)cc23)cc(C(F)(F)F)c1 gave CC50 at 72 h of 388

Per the records, this compound ( N#Cc1ccc(Nc2ncnc3ccc(Cl)cc23)c(Cl)c1 ) has CC50 at 72 h equal to 46.2

Sure, the documented CC50 at 72 h for CCOc1ccc2nc(NCc3cccs3)nc(Nc3cc(C(F)(F)F)cc(C(F)(F)F)c3)c2c1 is 10.7

# CC50 at 72 h of CN(C)c1ccc(Nc2ncnc3ccc(Cl)cc23)c(Cl)c1 = 4.28

For reference, reported CC50 at 72 h for COc1ccc2ncnc(Nc3cc(F)cc(F)c3)c2c1 stands at 388

Noted for COc1ccc2ncnc(Nc3cc(F)cc(OC(F)(F)F)c3)c2c1 : its CC50 at 72 h reads 289
